target: IDO1 (1-435) (Homo sapiens); construct: His-tag of pET15b with TEV site (thrombin site replaced) (cleaved yes); made in house; host or cells: E. coli Rosetta 2 (DE3) pLysS; experiment: STD-NMR fragment screening, IDO1; assay type: binding; settings: 1 = hit, 0 = no hit
Sequence (P14902 whole entry, the tested form may be a part): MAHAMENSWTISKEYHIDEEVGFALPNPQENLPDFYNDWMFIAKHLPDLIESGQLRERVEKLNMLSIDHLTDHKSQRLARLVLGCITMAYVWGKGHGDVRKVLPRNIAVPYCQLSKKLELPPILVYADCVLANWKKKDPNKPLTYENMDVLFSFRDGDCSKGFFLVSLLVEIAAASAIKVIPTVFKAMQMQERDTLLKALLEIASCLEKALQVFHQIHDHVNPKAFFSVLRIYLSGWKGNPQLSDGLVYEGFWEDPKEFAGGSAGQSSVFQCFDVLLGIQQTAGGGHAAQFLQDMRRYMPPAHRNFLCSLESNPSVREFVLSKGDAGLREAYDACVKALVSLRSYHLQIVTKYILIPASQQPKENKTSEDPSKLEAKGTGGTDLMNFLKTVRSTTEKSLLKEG
// IDO1 (STD-NMR hit flag) lookup, one value per entry
The answer should be written as a number, with no unit following it.

Some solved entries appear below for comparison.
# compound, measured.endpoint, readout.value
rows = [
    ("CN(N)c1ncc(C(F)(F)F)cc1Cl [Fragment B02290089]", "IDO1 (STD-NMR hit flag)", 0),
    ("Cc1ccc(N)c(Cl)n1 [Fragment B02289616]", "IDO1 (STD-NMR hit flag)", 0),
]

Incoming: Consider the compound Nc1ncnc(Cl)c1Cl [Fragment B02289621] and give its measured IDO1 (STD-NMR hit flag).
Outgoing: 0

Incoming: Consider the compound O=C(O)c1csc(Cl)n1 [Fragment B02291228] and give its measured IDO1 (STD-NMR hit flag).
Outgoing: 0

Incoming: Consider the compound O=C(O)c1ccc(Cl)o1 [Fragment B02290466] and give its measured IDO1 (STD-NMR hit flag).
Outgoing: 0

Incoming: Consider the compound Clc1cnc2ccccn12 [Fragment B02294486] and give its measured IDO1 (STD-NMR hit flag).
Outgoing: 1

* * *

target: AAK1 (121-471) (Homo sapiens); experiment: STD-NMR fragment screening, AAK1; type: binding; details: 1 = hit, 0 = no hit
Sequence (Q2M2I8 46-315 limits assumed): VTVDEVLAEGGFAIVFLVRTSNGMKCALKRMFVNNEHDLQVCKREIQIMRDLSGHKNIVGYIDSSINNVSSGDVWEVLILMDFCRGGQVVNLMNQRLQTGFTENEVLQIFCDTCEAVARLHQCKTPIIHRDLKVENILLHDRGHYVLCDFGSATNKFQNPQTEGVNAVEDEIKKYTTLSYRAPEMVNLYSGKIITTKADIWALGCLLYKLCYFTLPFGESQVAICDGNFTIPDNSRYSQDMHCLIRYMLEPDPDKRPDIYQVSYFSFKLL
measured.endpoint: AAK1 (STD-NMR hit flag)
The answer should be written as a number, with no unit following it.

Incoming: Consider the compound Clc1cscn1 and give its measured AAK1 (STD-NMR hit flag).
Outgoing: 0

Incoming: Consider the compound CC(=O)c1c[nH]c2ncnc(Cl)c12 and give its measured AAK1 (STD-NMR hit flag).
Outgoing: 1

Incoming: Consider the compound Cn1cc(Br)c(N)n1 and give its measured AAK1 (STD-NMR hit flag).
Outgoing: 0

* * *

// CAMK1G (STD-NMR hit flag) lookup, one value per entry
molecular target: CAMK1G (1-320) (Homo sapiens); construct: made in house; host or cells: E. coli BL21 (DE3) pLysS; test: STD-NMR fragment screening, CAMK1G; format: binding; conditions: 1 = hit, 0 = no hit
Sequence (Q96NX5 1-320): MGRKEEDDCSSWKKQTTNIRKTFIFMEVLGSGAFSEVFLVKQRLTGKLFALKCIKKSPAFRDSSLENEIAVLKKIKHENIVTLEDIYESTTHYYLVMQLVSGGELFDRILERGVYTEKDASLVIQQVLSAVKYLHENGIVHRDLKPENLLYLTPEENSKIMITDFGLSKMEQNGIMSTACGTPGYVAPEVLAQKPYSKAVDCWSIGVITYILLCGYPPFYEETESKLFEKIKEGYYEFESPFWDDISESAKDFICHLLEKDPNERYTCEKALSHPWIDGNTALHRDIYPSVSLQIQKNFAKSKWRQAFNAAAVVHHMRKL

Incoming: Consider the compound Nc1ncc(Br)cc1CO and give its measured CAMK1G (STD-NMR hit flag).
Outgoing: 1

* * *

Molecular target: IDO1 (1-435) (Homo sapiens)
Construct: His-tag of pET15b with TEV site (thrombin site replaced) (cleaved yes); made in house; host or cells: E. coli Rosetta 2 (DE3) pLysS
Assay: STD-NMR fragment screening, IDO1
Format: binding
Details: 1 = hit, 0 = no hit
Method: All fragments were stored at −20°C as solids in argon flushed glass bottles. For NMR screening, fragments were weighed and dissolved in DMSO-d6 to a stock concentration of 300 mM. Mother plates were prepared with a 100 mM concentration. […] Fifteen of these compounds contain the same halogen twice. […] As fragment mixtures can lead to competitive effects between their fragments, it is not advised to use the quantification of peak mixtures for hit ranking.
// IDO1 (STD-NMR hit flag) lookup, one value per entry
The answer should be written as a number, with no unit following it.

# molecule, IDO1 (STD-NMR hit flag)
data = [
    ("Nc1cccc(Br)c1O [Fragment B02289603]", 0),
    ("Cn1nc(Br)nc1NN [Fragment B02290120]", 0),
    ("OCc1c(Cl)nc2sccn12 [Fragment B02291233]", 0),
    ("Cc1noc(C)c1Br [Fragment B02289596]", 0),
    ("O=C(O)c1c(Cl)cncc1Cl [Fragment B02297411]", 1),
    ("O=c1[nH]cc(Cl)cc1[N+](=O)[O-] [Fragment B02290460]", 0),
    ("Nc1c(Cl)ccc2nonc12 [Fragment B02291217]", 0),
    ("Nc1ccc(C(=O)O)c(Cl)c1 [Fragment B02291259]", 0),
]

Incoming: Consider the molecule Nc1ncc(C(F)(F)F)cc1Cl [Fragment B02291219] and give its measured IDO1 (STD-NMR hit flag).
Outgoing: 0

Incoming: Consider the molecule Brc1cnc2cnccn12 [Fragment B02289617] and give its measured IDO1 (STD-NMR hit flag).
Outgoing: 0

Incoming: Consider the molecule CC(=O)CS(=O)(=O)c1cc(Cl)ccc1F [Fragment B02297765] and give its measured IDO1 (STD-NMR hit flag).
Outgoing: 0
